All figures here come from PubChem BioAssay (NCI).

# System: EKVX NSCLC
# assay_details: NCI tumour cell line growth inhibition, 48 h
TGI reference

The cases that follow already have their TGI on record.
Which TGI is listed for O=c1oc2ccccc2c(-c2ccc(O)cc2)c1Oc1ccccc1 ?
49.9 µM

Please answer likewise for O=C1c2ccccc2N1C(=O)c1ccccc1[N+](=O)[O-]
> 100 µM

Please answer likewise for NCCc1ccc(S(=O)(=O)O)cc1[N+](=O)[O-]
> 100 µM

Please answer likewise for CC(=O)Nc1ccc2c(c1)C(=O)c1ccccc1-2
> 100 µM

Please answer likewise for O=[N+]([O-])c1ccc(N/N=C\c2cc(Br)ccc2O)nc1
7.69 µM

Please answer likewise for Cc1nn(C(=O)Cc2ccccc2)c2c1C(c1ccc(/C=C/c3ccccc3)cc1)SC(N)=N2 (stereo unspecified)
> 100 µM

Others:
Which TGI is listed for CC(C)(C)C1CC[C@H]2c3c([nH]c4ccccc34)[C@H]3C(=O)N(c4ccc(F)cc4)C(=O)[C@H]3[C@H]2C1 (stereo partly specified) ?
36.9 µM

Please answer likewise for S=c1[nH]nc(Cn2c3ccc(Br)cc3c3nc4ccccc4nc32)o1
> 100 µM

Please answer likewise for CC[C@]12C=CCN3CC[C@@]4(c5ccc(OC)cc5N(C)[C@H]4[C@@](O)(C(=O)OC)[C@@H]1OC(=O)CCCN1CCN(CCCC(=O)O[C@@H]4[C@]5(CC)C=CCN6CC[C@@]7(c8ccc(OC)cc8N(C)[C@H]7[C@@]4(O)C(=O)OC)[C@@H]65)CC1)[C@@H]32
2.97 µM

Please answer likewise for CC1C(OS(=O)(=O)c2ccc3[nH]c(=S)sc3c2)CC2C3(C)CCC2(C(C)C(=O)O)C(O)C13 (stereo unspecified)
> 100 µM

----------
TGI reference
# Test system: IGROV1 ovarian
# assay_details: NCI tumour cell line growth inhibition, 48 h

State its TGI on IGROV1 ovarian: COC(=O)c1sc(=S)sc1SCc1cccc(CSc2sc(=S)sc2C(=O)OC)c1
> 100 µM

Please answer likewise for CC(=O)n1c2ccc(Br)cc2c2nc3ccccc3nc21
> 100 µM

Please answer likewise for COc1cc(S(=O)(=O)Nc2nc(-c3ccc(N=Cc4ccccc4O)cc3)cs2)ccc1Cl
> 100 µM

Please answer likewise for CN(C)[C@@H]1C(=O)C(C(=O)NCc2nc3[nH]cnc(=S)c3[nH]2)=C(O)[C@@]2(O)C(=O)C3=C(O)c4c(O)cccc4[C@@](C)(O)[C@H]3C[C@@H]12
> 100 µM

Others:
State its TGI on IGROV1 ovarian: COc1ccc(-c2c(Nc3ccccn3)nc3c(C4=CCCCC4)c(-c4ccccc4)[nH]n3c2=O)cc1
51.4 µM

----------
# Tested on: COLO 205 colon
# assay_details: NCI tumour cell line growth inhibition, 48 h; in the data active means GI50 below about 0.43 µM; inactive means the rest
The categories you may choose from are active, inactive

As a guide, the following entries are already answered.
Lab log entry: CN(c1ccccc1)c1c2ccccc2nc2[nH]c3ccccc3c12 — outcome as called in the assay?
inactive

Please answer likewise for CC(=O)O[C@H]1C[C@@H]2[C@@]3(C)CC[C@H]4C[C@@]4(C)[C@@H]3CC[C@@]2(C)C2=CCC3=C(COC3=O)[C@]21C
inactive

Please answer likewise for COc1cc2c(cc1OCCN1CCN(CCN3C(=O)c4cccc5cccc(c45)C3=O)CC1)N=C[C@@H]1CCCN1C2=O
inactive

Please answer likewise for COc1ccc(-n2c(=O)c3ccccc3n(Cc3ccc(C(=O)NO)cc3)c2=O)cc1
inactive

Please answer likewise for COc1ccccc1CNCCCN1C(=O)c2ccc3c4c(ccc(c24)C1=O)C(=O)N(CCCNCc1ccccc1OC)C3=O
active

Please answer likewise for N#CC1=C(N)Oc2c(ccc3ccccc23)C1c1cc2ccccc2n2nnnc12 (stereo not given)
inactive

Please answer likewise for CN(C)c1ccc(/C=N/N=C(\C#N)[S][Sn]([Cl])([c]2ccccc2)[c]2ccccc2)cc1
inactive

Please answer likewise for COc1ccc([C@@H]2[C@@H](Oc3ccccc3)C(=O)N2c2cc(OC)c(OC)c(OC)c2)cc1F
active

Others:
Lab log entry: Cc1cccc(Oc2ccc(Nc3ncnc4ccc(NC(=O)CN(C)C)cc34)cc2Cl)c1 — outcome as called in the assay?
inactive

Please answer likewise for O=C(/C=C(\[O-])c1ccccc1)CCCCCCC(=O)/C=C(\[O-])c1ccccc1.O=C(/C=C(\[O-])c1ccccc1)CCCCCCC(=O)/C=C(\[O-])c1ccccc1.O=C(/C=C(\[O-])c1ccccc1)CCCCCCC(=O)/C=C(\[O-])c1ccccc1.[Y+3].[Y+3]
inactive

----------
# Test system: KM20L2 colon
# assay_details: NCI tumour cell line growth inhibition, 48 h
measurement_kind: TGI

The cases that follow already have their TGI on record.
Which TGI is listed for O=c1c2cc(Br)ccc2nc(CNc2ccccc2)n1-c1ccccc1 ?
> 100 µM

Please answer likewise for CCC12C=C(C(=O)OC)N3c4ccccc4C4CCN(CCC1)C2C43 (stereo not drawn)
56.7 µM

Please answer likewise for O=C1c2ccccc2C2(O)N(c3ccccc3)C(=S)N(c3ccccc3)C12O (stereo not drawn)
> 100 µM

Please answer likewise for CCOC(OCC)(OCC)C(Br)CC (stereo not drawn)
> 100 µM

Please answer likewise for N#Cc1c(CC(=O)O)cc(=O)n2c1[nH]c1ccccc12
> 100 µM

Please answer likewise for COC(=O)N/N=C(\C)c1sc(-c2nc(C)c(/C(C)=N/NC(=O)OC)s2)nc1C
> 100 µM

Please answer likewise for CC(C)(C)C1CC[C@H]2c3c([nH]c4ccccc34)[C@H]3C(=O)N(c4ccc(F)cc4)C(=O)[C@H]3[C@H]2C1 (stereo partly drawn)
46.5 µM

Shifting focus to the molecule that follows.
Which TGI is listed for CN(C)c1ccc(/C=C2\CCc3ccccc3C2=O)cc1Br ?
> 100 µM

----------
# Test system: TK-10 renal
# assay_details: NCI tumour cell line growth inhibition, 48 h; in the data active means GI50 below about 0.43 µM; inactive means the rest
The categories you may choose from are active, inactive

As a guide, the following entries are already answered.
Lab log entry: Oc1c(Br)cc(Cl)cc1C(c1cc(Cl)cc(Br)c1O)C(Cl)(Cl)Cl — outcome as called in the assay?
inactive

Please answer likewise for CCOC(=O)c1c(Cl)c2c(n1Cc1ccccc1)-c1oncc1CCC2
inactive

Please answer likewise for CCCCCCCCCCN=C(N)c1ccc(N2CCN(c3ccc(C(N)=NCCCCCCCCCC)cc3)CC2)cc1
inactive

Please answer likewise for C#CCCCCCC(=O)N[C@H]1C=C[C@@H]2/C=C(C)/C=C/[C@@H](C)[C@H]([C@H](C)[C@H](O)[C@@H](C)NC(C)=O)OC(=O)/C=C/C=C(C)\C=C\[C@]2(C)C1
active

Shifting focus to the molecule that follows.
Lab log entry: O=C1NC(=NCc2cccs2)O/C1=C\c1ccc2ncccc2c1 — outcome as called in the assay?
inactive

----------
# System: NCI/ADR-RES ovarian
# assay_details: NCI tumour cell line growth inhibition, 48 h
TGI reference

Which TGI is listed for CC(=O)Oc1ccc(-c2nnc(-c3ccc(OC(C)=O)cc3)nn2)cc1 ?
> 100 µM

Please answer likewise for O=C(NC1CCCCC1)c1n[nH]nc1Cl
> 100 µM

Shifting focus to the compound that follows.
Which TGI is listed for Cc1cn([C@H]2C[C@@H](N3C(=O)c4ccccc4C3=O)[C@@H](CO[Si](C)(C)C(C)(C)C)O2)c(=O)[nH]c1=O ?
> 100 µM

----------
TGI reference
# Test system: OVCAR-4 ovarian
# assay_details: NCI tumour cell line growth inhibition, 48 h

State its TGI on OVCAR-4 ovarian: C=C(C)c1nc(Oc2ccccc2)nc(Oc2ccccc2)n1
31.7 µM

Please answer likewise for COC(=O)/C(=N\N)C(C(=O)C(=O)Nc1cc(Cl)ccc1Cl)c1nc2ccc([N+](=O)[O-])cc2[nH]c1=O (stereo not given)
> 100 µM

Please answer likewise for CCOC(=O)C1C(NC(N)=O)N(Cc2ccccc2)C(=O)N1Cc1ccccc1 (stereo not given)
> 100 µM

Please answer likewise for COc1ccc(OC)c(/C=C2/C(=O)N=C(NC(C)=O)N2C)c1
> 100 µM

Shifting focus to the compound that follows.
State its TGI on OVCAR-4 ovarian: Cc1cn([C@H]2C[C@@H](N3C(=O)c4ccccc4C3=O)[C@@H](CO[Si](C)(C)C(C)(C)C)O2)c(=O)[nH]c1=O
> 100 µM

----------
TGI reference
# Test system: UO-31 renal
# assay_details: NCI tumour cell line growth inhibition, 48 h
Please give a number only; it is taken to be in µM.

The cases that follow already have their TGI on record.
Which TGI is listed for CC1(c2ccc(Cl)cc2)C=C(c2ccc(Cl)cc2)C(C#N)=C(C(C#N)C#N)N1 (stereo unspecified) ?
30.5

Please answer likewise for Cc1cccc(Oc2ccc(Nc3ncnc4ccc(NC(=O)CN(C)C)cc34)cc2Cl)c1
2.47

Please answer likewise for CCOC(=O)c1cn(-c2ccc([N+](=O)[O-])cc2)c(=S)n2c1nc1ccccc12
4.64

Please answer likewise for O=C(O)CSc1cc(NS(=O)(=O)c2ccc(Br)cc2)c2ccccc2c1O
25.2

Shifting focus to the compound that follows.
Which TGI is listed for CN(C)c1ccc(/C=N/N=C(\C#N)[S][Sn]([Cl])([c]2ccccc2)[c]2ccccc2)cc1 ?
3.08
